Test system: allergen specific T cells
assay summary: T cell proliferation assay (72 h) on donor derived T cell lines (TCL02/TCL03)
Type: cell-based, human
protocol conditions: T cell lines TCL-02 DK1; strength of response (average relative magnitude)
Hi there, I'd appreciate the recorded Proliferation strength (TCL-02 DK1) for every entry that follows.
Numbers only.

Consider the worked cases shown below.
1) CC[C@H](C)[C@H](NC(=O)[C@@H](N)CC(=O)O)C(=O)N[C@@H](CC(N)=O)C(=O)N[C@H](C(=O)NCC(=O)N[C@@H](Cc1ccccc1)C(=O)N[C@@H](CCCCN)C(=O)N[C@@H](C)C(=O)N[C@@H](C)C(=O)N[C@H](C(=O)N[C@@H](C)C(=O)N[C@@H](C)C(=O)N[C@@H](C)C(=O)N[C@@H](C)C(=O)NCC(=O)O)C(C)C)C(C)C    6.50
2) CC[C@H](C)[C@H](NC(=O)[C@H](CCC(=O)O)NC(=O)[C@H](Cc1c[nH]c2ccccc12)NC(=O)[C@@H](NC(=O)CNC(=O)[C@@H](N)CC(=O)O)C(C)C)C(=O)N[C@@H](CCCCN)C(=O)N[C@@H](CO)C(=O)N[C@@H](CC(=O)O)C(=O)N[C@@H](CCCCN)C(=O)N1CCC[C@H]1C(=O)N[C@@H](CC(C)C)C(=O)N[C@@H](CCCCN)C(=O)NCC(=O)N1CCC[C@H]1C(=O)O    1.80

Moving on to the next molecule.
### Prompt Look at this molecule and give its reported Proliferation strength (TCL-02 DK1). CC[C@H](C)[C@H](NC(=O)[C@H](CCCCN)NC(=O)[C@H](CCC(=O)O)NC(=O)[C@@H](NC(=O)[C@@H](N)CC(C)C)[C@@H](C)CC)C(=O)N[C@@H](CC(N)=O)C(=O)N[C@@H](C)C(=O)NCC(=O)N[C@@H](Cc1ccccc1)C(=O)N[C@@H](CCCCN)C(=O)N[C@@H](C)C(=O)N[C@@H](C)C(=O)N[C@H](C(=O)N[C@@H](C)C(=O)N[C@@H](C)C(=O)O)C(C)C
### Response 7.90

====

Test system: allergen specific T cells
assay summary: T cell proliferation assay (72 h) on donor derived T cell lines (TCL02/TCL03)
Type: cell-based, human
protocol conditions: T cell lines TCL-02 DK1; strength of response (average relative magnitude)
readout kind: Proliferation strength (TCL-02 DK1)

### Prompt Look at this molecule and give its reported Proliferation strength (TCL-02 DK1). CC[C@H](C)[C@H](NC(=O)[C@@H](NC(=O)[C@H](CCC(=O)O)NC(=O)[C@H](CC(=O)O)NC(=O)[C@H](Cc1ccccc1)NC(=O)[C@@H](NC(=O)[C@@H](N)CC(N)=O)C(C)C)C(C)C)C(=O)N1CCC[C@H]1C(=O)N[C@H](C(=O)N[C@@H](C)C(=O)N[C@@H](Cc1ccccc1)C(=O)N[C@H](C(=O)N[C@H](C(=O)NCC(=O)N[C@@H](CCCCN)C(=O)O)C(C)C)[C@@H](C)O)[C@@H](C)O
### Response 2.80

Source: patent US20180207228A1
